Tested on: MDA-MB-468 cell line
ASSAY_COMMENT: MDA-MB-468 cancer cell proliferation inhibition (Cell Titer-Glo)
Type: cell-based
TEST_CONDITIONS: Homo sapiens, MDA-MB-468 triple-negative breast cancer cell line, 72 hours
List of GI50 values.
MEASURED_ATTRIBUTE: GI50

# TEST_SMILES, RECORDED_VALUE
records = [
    ("N#Cc1c[nH]c2nc(Nc3ccc(C(=O)N4CCC(N5CCOCC5)CC4)c4c3OCCO4)cc(NC3CCCCC3)c12", "101 to 300 nM"),
    ("N#Cc1c[nH]c2nc(Nc3ccc(C(=O)N4CCOCC4)c4c3OCCO4)cc(NC3CCCC3)c12", "51 to 100 nM"),
    ("CNc1cc(Nc2ccc(C(=O)N3CCOCC3)c3c2OCCO3)nc2[nH]cc(C(F)(F)F)c12", "101 to 300 nM"),
    ("COc1cc(S(=O)(=O)N2CCC(N3CCOCC3)CC2)ccc1Nc1cc(NC2CCCCC2)c2c(C#N)c[nH]c2n1", "101 to 300 nM"),
    ("N#Cc1c[nH]c2nc(Nc3ccc(C(=O)N4CCOCC4)c4c3OCCO4)cc(NC3CCCCC3)c12", "51 to 100 nM"),
]
